All values here come from paper PMC12264554.

# SYSTEM: HasA (Pseudomonas aeruginosa)
# Sequence (G3XD33 entry or part of it): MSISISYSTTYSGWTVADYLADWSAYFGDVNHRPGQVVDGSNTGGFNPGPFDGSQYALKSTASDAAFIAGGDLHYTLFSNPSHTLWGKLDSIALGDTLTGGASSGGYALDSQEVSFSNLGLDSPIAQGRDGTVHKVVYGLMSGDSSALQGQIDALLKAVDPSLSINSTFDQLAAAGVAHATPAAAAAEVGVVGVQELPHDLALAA
# EXPERIMENT DESCRIPTION: Kd determination by fluorescence quenching of apo-HasAp
# TEST CONDITIONS: read-out: HasA Kd; apo-HasAp 1 μM, 20 mM sodium phosphate pH 7.4, 25 °C, one-site binding fit
So I've got a bunch of molecules here, and I need their pKd values.
A value of pKd is the negative decimal logarithm of a concentration given in moles per litre.

Query block: Requested field: pKd. Item: Oc1ccccc1/C=N/c1ccccc1/N=C/c1ccccc1O.[Ga+3] [GaSal, gallium salophen]
Result block: 6.10

Query block: Requested field: pKd. Item: O=C(O)CCOc1ccc(C=Nc2ccccc2N=Cc2ccc(OCCC(=O)O)cc2O)c(O)c1.[Ga+3] [GaSal-4]
Result block: 5.96

Query block: Requested field: pKd. Item: OCCCOc1ccc(/C=N/c2ccccc2/N=C/c2ccc(OCCCO)cc2O)c(O)c1.[Ga+3] [GaSal-11]
Result block: 6.24

Query block: Requested field: pKd. Item: C/C(=N\c1ccccc1/N=C/c1ccc(OCC[N+](C)(C)C)cc1O)c1ccccc1O.[Ga+3] [GaSal-6]
Result block: 5.40

* * *

# EXPERIMENT DESCRIPTION: Experimental LogP by reverse-phase HPLC method
# Format: physicochemical
# TEST CONDITIONS: extrapolated log kw
ASSAY METRIC: logP
No unit in the answer, only the number.

Query block: Requested field: logP. Item: CN(C)CCOc1ccc(C=Nc2ccccc2N=Cc2ccc(OCCN(C)C)cc2O)c(O)c1.[Ga+3] [GaSal-2]
Result block: 3.7

Query block: Requested field: logP. Item: CC(=Nc1ccccc1N=Cc1ccc(OCCN2CCOCC2)cc1O)c1ccccc1O.[Ga+3] [GaSal-8]
Result block: 4.11

Query block: Requested field: logP. Item: CC(=Nc1ccccc1N=Cc1ccc(OCCN(C)C)cc1O)c1ccccc1O.[Ga+3] [GaSal-7]
Result block: 3.27

Query block: Requested field: logP. Item: OCCCOc1ccc(/C=N/c2ccccc2/N=C/c2ccc(OCCCO)cc2O)c(O)c1.[Ga+3] [GaSal-11]
Result block: 4.04

Query block: Requested field: logP. Item: COCCOc1ccc(/C=N/c2ccccc2N=C(C)c2ccccc2O)c(O)c1.[Ga+3] [GaSal-14]
Result block: 3.31

* * *

# EXPERIMENT DESCRIPTION: Caco-2 permeability screening
# Format: in vitro ADME
# TEST CONDITIONS: human, Caco-2, with OCT1 inhibitor cocktail; read-out: Efflux Ratio B to A/ A to B
ASSAY METRIC: efflux ratio at 20 µM
No unit in the answer, only the number.

Query block: Requested field: efflux ratio at 20 µM. Item: Oc1ccccc1/C=N/c1ccccc1/N=C/c1ccccc1O.[Ga+3]
Result block: 8.1

* * *

# EXPERIMENT DESCRIPTION: Caco-2 permeability screening
# Type: in vitro ADME
# TEST CONDITIONS: Caco-2, 20 μM, 30 and 60 min, average ± SEM; read-out: Papp basolateral to apical
Param threshold (1 ×10⁻⁶ cm/s) applies to Papp B→A; output t when value >= threshold, f when value < threshold.

Query block: Kindly determine if Papp B→A recorded for COCCOc1ccc(/C=N/c2ccccc2N=C(C)c2ccccc2O)c(O)c1.[Ga+3] [GaSal-14] is above or exactly 1 ×10⁻⁶ cm/s.
Result block: t

Query block: Kindly determine if Papp B→A recorded for COCCOc1ccc(/C=N/c2ccccc2/N=C/c2ccc(OCCOC)cc2O)c(O)c1.[Ga+3] [GaSal-13] is above or exactly 1 ×10⁻⁶ cm/s.
Result block: f

Query block: Kindly determine if Papp B→A recorded for CC(=Nc1ccccc1N=Cc1ccc(OCCN2CCOCC2)cc1O)c1ccccc1O.[Ga+3] [GaSal-8] is above or exactly 1 ×10⁻⁶ cm/s.
Result block: t

Query block: Kindly determine if Papp B→A recorded for CC(=Nc1ccccc1N=Cc1ccc(OCCC(=O)O)cc1O)c1ccccc1O.[Ga+3] [GaSal-9] is above or exactly 1 ×10⁻⁶ cm/s.
Result block: t

Query block: Kindly determine if Papp B→A recorded for COCCOCCOc1ccc(C=Nc2ccccc2N=Cc2ccc(OCCOCCOC)cc2O)c(O)c1.[Ga+3] [GaSal-5] is above or exactly 1 ×10⁻⁶ cm/s.
Result block: t

Query block: Kindly determine if Papp B→A recorded for CCCCOc1ccc(/C=N/c2ccccc2/N=C/c2ccc(OCCCC)cc2O)c(O)c1.[Ga+3] [GaSal-15] is above or exactly 1 ×10⁻⁶ cm/s.
Result block: t

Query block: Kindly determine if Papp B→A recorded for CC(=Nc1ccccc1/N=C/c1ccc(OCCCO)cc1O)c1ccccc1O.[Ga+3] [GaSal-12] is above or exactly 1 ×10⁻⁶ cm/s.
Result block: f

Query block: Kindly determine if Papp B→A recorded for OCCCOc1ccc(/C=N/c2ccccc2/N=C/c2ccc(OCCCO)cc2O)c(O)c1.[Ga+3] [GaSal-11] is above or exactly 1 ×10⁻⁶ cm/s.
Result block: f

Query block: Kindly determine if Papp B→A recorded for Oc1ccccc1/C=N/c1ccccc1/N=C/c1ccccc1O.[Ga+3] [GaSal, gallium salophen] is above or exactly 1 ×10⁻⁶ cm/s.
Result block: t

Query block: Kindly determine if Papp B→A recorded for O=C(O)CCOc1ccc(C=Nc2ccccc2N=Cc2ccc(OCCC(=O)O)cc2O)c(O)c1.[Ga+3] [GaSal-4] is above or exactly 1 ×10⁻⁶ cm/s.
Result block: t

Query block: Kindly determine if Papp B→A recorded for Oc1cc(OCCN2CCOCC2)ccc1C=Nc1ccccc1N=Cc1ccc(OCCN2CCOCC2)cc1O.[Ga+3] [GaSal-3] is above or exactly 1 ×10⁻⁶ cm/s.
Result block: t
